Target: T1, Sym-1789 (RSV-G type B central region peptide 145-184) (Respiratory syncytial virus type B, N-terminal biotin)
T1 construct: Synthetic peptide, C-terminally truncated against Sym-1788
T1 peptide: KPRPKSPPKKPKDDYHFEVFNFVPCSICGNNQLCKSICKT
Assay: ELISA, biotinylated peptide on avidin plate
measure: binding result

INSERT INTO results (binder, measure, experimental_result) VALUES
  ('CB065.1 (antibody, V domains shown, Tested as human IgG from the pCP9-kappa vector) VH: QVQLVESGGGVVQPGRSLRLSCAASGFTFSNYGMHWVRQAPGKGLEWVTIISYDESTTLYADSVKGRFTISRDNSKNTVYLQMNSLRPEDTAVYYCARDHFDPSGYFWYFDLWGRGTLVTVSS VL: DIVMTQSPLSLSVTPGQPASISCKSSQSLLQRDGKTYLYWYLQKPGQSPQLLIYEVSSRFSGVPDRFSGSGSGTDFTLKISRVEAEDVGVYYCMQGIRLPRTFGQGTKVEIK', 'binding result', 'binds'),
  ('CB028.1 (antibody, V domains shown, Tested as human IgG from the pCP9-kappa vector) VH: QVQLVQSGAEVKKPGASVQVSCKTSGYTFSSYGISWVRQAPGQGPEWMGWISTHIGTTNYAQKLQGRVTMTTDTSTTTAYMELRSLRSDDTAVYYCARDLAKWYCSGDTCFCSGGRCYSDHWGQGTLVTVSS VL: DIQMTQSPSSLSASVGDRVTITCRASQSINDCLNWYQQKPGQAPKLLISAASNLQSGVPSRFSGSGSETDFTLTISSLQPEDFAAYYCQQSFSTPLTFGGGTKVEIK', 'binding result', 'binds'),
  ('CB071.1L (antibody, V domains shown, Tested as human IgG from the pCP9-lambda vector) VH: QVQLVQSGAEVKKPGSSVRVSCKASGGTFSRYVITWVRQAPGQGLEWMGGSIPIIDTSTYAQKFQDRVTITADKSTSTVYLELSSLRPEDTAIYYCAKVFFFSNSSGPPTEGPAFDVWGQGTMVTVSS VL: SYELTQPPSVSVSPGQTASITCSGHELGDKYVSWYQQKPGQSPVLLIYQDTNRPAGIPERFSGSNSGSTAFLTISATQAMDEADYYCQAWDNSHVVFGGGTKLTVL', 'binding result', 'binds');
